The measurements presented in this section are drawn from ChEMBL document CHEMBL3232974.

Measured MTD values are reported for all entries that follow.
- Test system: Cynomolgus monkey
- run_description: Toxicity in cynomolgus monkey compound administered as topical ocular dose after 6 hrs
- Assay type: organism-based, Macaca fascicularis, Eye
- run_parameters: in vivo, topical_or_ocular
Could you give me the number in %? Just the number is fine.

Past entries and their recorded results:
molecule	MTD, %
Cc1n[nH]c2ccc(-c3cncc(N4CCCNCC4)n3)cc12	0.33
C[C@@H](N)c1ccc(C(=O)Nc2ccnc3[nH]ccc23)cc1 [Y-39983]	0.1
c1cc2[nH]ncc2cc1-c1cncc(N2CCCNCC2)n1	0.33

-- ask Item "c1nc(N2CCCC2)c(N2CCCNCC2)nc1-c1cc2cn[nH]c2cn1" with Cynomolgus monkey - MTD?
-- reply 0.33

-- ask Same lookup for "OCCN1CCN(c2nc(-c3ccncc3)cnc2N2CCCC2)CC1" , please.
-- reply 1

-- ask Same read-out for CC(=O)NCC(O)CN1CCN(c2nc(-c3ccncc3)cnc2N2CCCC2)CC1 (stereo not drawn) ?
-- reply 0.33

-- ask Here is the next molecule: CN(C)CC(O)CN1CCN(c2nc(-c3ccncc3)cnc2N2CCCC2)CC1 (stereo not drawn)
-- reply 1

-- ask Same for "CC(=O)NCCCN1CCN(c2nc(-c3ccncc3)cnc2N2CCCC2)CC1"
-- reply 0.5
